# Test system: CEM cells HIV-1 protection, formazan growth assay
# Assay Notes: NCI AIDS Antiviral Assay
# Condition Context: measured here: growth of uninfected CEM cells
We begin with a simple list: items and their reported IC50.

- Molecule: "Cc1ccc(S(=O)(=O)OI(O)CC(F)(F)F)cc1"
  Assayed Target: "CEM cells HIV-1 protection, formazan growth assay"
  IC50: "> 200 µM"
- Molecule: "COc1cccc(/C=N/[N-]C(=O)c2ccncc2)c1[O-].[OH3+].[Pd+2]"
  Assayed Target: "CEM cells HIV-1 protection, formazan growth assay"
  IC50: "> 16.6 µM"
- Molecule: "O=C(O)COc1cccc2ccccc(=O)c12"
  Assayed Target: "CEM cells HIV-1 protection, formazan growth assay"
  IC50: "> 200 µM"
- Molecule: "CCOC(=O)C1=C(C)NC2=C(C(=O)N(c3ccccc3)C2c2ccccc2)C1c1ccccc1 (centres undefined)"
  Assayed Target: "CEM cells HIV-1 protection, formazan growth assay"
  IC50: "> 41.7 µM"
- Molecule: "C/C(O)=C(\\C=NC(=S)c1ccncc1)C(=O)Nc1ccccc1C"
  Assayed Target: "CEM cells HIV-1 protection, formazan growth assay"
  IC50: "> 200 µM"
- Molecule: "O=C(N/C(=C\\c1ccccc1O)C1NC(Cc2c[nH]c3ccccc23)C(=O)O1)c1ccccc1 (centres undefined)"
  Assayed Target: "CEM cells HIV-1 protection, formazan growth assay"
  IC50: "74.1 µM"
- Molecule: "COC(=O)C1(C(=O)OC)N=C(C)OC1c1ccoc1 (centres undefined)"
  Assayed Target: "CEM cells HIV-1 protection, formazan growth assay"
  IC50: "> 200 µM"
- Molecule: "CSc1nc(SC)c(Nc2cccc(C)c2)c(SC)n1"
  Assayed Target: "CEM cells HIV-1 protection, formazan growth assay"
  IC50: "3.47 µM"
- Molecule: "CC[C@H]1OC(=O)[C@H](C)[C@@H](OC2CC(C)(OC)C(O)C(C)O2)[C@H](C)[C@@H](OC2OC(C)CC(N(C)C)C2OC(=O)CCC2CCCC2)[C@](C)(O)C[C@@H](C)C(=O)[C@H](C)[C@@H](O)[C@]1(C)O (some centres undefined)"
  Assayed Target: "CEM cells HIV-1 protection, formazan growth assay"
  IC50: "40.7 µM"
- Molecule: "CC(C)N1CC(=O)N2CSCC2C1=O (centres undefined)"
  Assayed Target: "CEM cells HIV-1 protection, formazan growth assay"
  IC50: "> 200 µM"
- Molecule: "CC(=O)N(CC(=O)C(=O)NNc1ccoc1)c1ccc(Cl)cc1"
  Assayed Target: "CEM cells HIV-1 protection, formazan growth assay"
  IC50: "> 200 µM"
- Molecule: "Cc1cc2c(=O)cc(-c3ccccc3Cl)oc2c(C(=O)O)c1C"
  Assayed Target: "CEM cells HIV-1 protection, formazan growth assay"
  IC50: "> 200 µM"
- Molecule: "NC(=O)CCN(CCC(N)=O)CCC(N)=O"
  Assayed Target: "CEM cells HIV-1 protection, formazan growth assay"
  IC50: "> 200 µM"
- Molecule: "O=C1CCCC1C(O)(C(F)(F)F)C(F)(F)F (centres undefined)"
  Assayed Target: "CEM cells HIV-1 protection, formazan growth assay"
  IC50: "> 200 µM"
- Molecule: "CC(C)CCC1(CCSC#N)C(=O)NC(=O)NC1=O"
  Assayed Target: "CEM cells HIV-1 protection, formazan growth assay"
  IC50: "37.2 µM"
- Molecule: "CSc1nc(C)cc(Nc2ccc(O)c(CN3CCCCC3)c2)n1"
  Assayed Target: "CEM cells HIV-1 protection, formazan growth assay"
  IC50: "64.6 µM"
- Molecule: "Cc1cccc(NC2=NCCO2)c1Cl"
  Assayed Target: "CEM cells HIV-1 protection, formazan growth assay"
  IC50: "105 µM"
- Molecule: "O=C1NC2ON=C(c3ccccc3)C2C2ON=C(c3ccccc3)N12 (centres undefined)"
  Assayed Target: "CEM cells HIV-1 protection, formazan growth assay"
  IC50: "37.2 µM"
- Molecule: "Clc1ccc(C2=NOC(C3CCCCC3)C2)cc1 (centres undefined)"
  Assayed Target: "CEM cells HIV-1 protection, formazan growth assay"
  IC50: "> 38 µM"

====

# Tested on: CEM cells HIV-1 protection, formazan growth assay
# Assay Notes: NCI AIDS Antiviral Assay
# Condition Context: measured here: growth of uninfected CEM cells
Recorded Metric: IC50

- Compound: "CCn1c2c(c3ccccc3c1=O)C(=O)c1ccccc1-2"
  Assayed Target: "CEM cells HIV-1 protection, formazan growth assay"
  Reported: "> 26.3 µM"
- Compound: "O=C1NCC2(CCNCC2)N1c1ccccc1"
  Assayed Target: "CEM cells HIV-1 protection, formazan growth assay"
  Reported: "> 200 µM"
- Compound: "C=CCCCN1CCCC(C)C1=S (stereo unspecified)"
  Assayed Target: "CEM cells HIV-1 protection, formazan growth assay"
  Reported: "> 251 µM"
- Compound: "Cc1ccc(/C=N/Nc2cnccn2)s1"
  Assayed Target: "CEM cells HIV-1 protection, formazan growth assay"
  Reported: "> 200 µM"
- Compound: "CC(=O)N1CCSC(C(=O)Nc2ccccc2)=C1C"
  Assayed Target: "CEM cells HIV-1 protection, formazan growth assay"
  Reported: "> 646 µM"
- Compound: "CN1COCN=C1NC#N"
  Assayed Target: "CEM cells HIV-1 protection, formazan growth assay"
  Reported: "> 631 µM"

====

This section presents compounds with their documented IC50 values.
# System: CEM cells HIV-1 protection, formazan growth assay
# Assay Notes: NCI AIDS Antiviral Assay
# Condition Context: measured here: growth of uninfected CEM cells

- Compound: "O=c1c2cc([N+](=O)[O-])ccc2n2n1Cc1ccccc1C2"
  IC50: "> 200 µM"
- Compound: "CCCCSC(=CC(=O)c1cccc(C(=O)C=C(SCCCC)SCCCC)n1)SCCCC"
  IC50: "> 3.72 µM"
- Compound: "Cc1ccc(S(=O)(=O)OCC2OC(CCCO)C/C([Si](C)(C)C)=C\\CC2Cl)cc1 (stereo not drawn)"
  IC50: "> 8.13 µM"

====

# System: CEM cells HIV-1 protection, formazan growth assay
# Assay Notes: NCI AIDS Antiviral Assay;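 active = compounds giving half or more protection of infected cells from virus-caused growth loss, again on retest; inactive = the rest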
Possible outcomes: class 1 = active, class 0 = inactive

- Compound: "O=C([O-])[C+](C=Cc1cccc2ccccc12)C(=O)O"
  Label: "class 0"
- Compound: "CN1CCCC2[C@@H]3CCC4=C(O)C(=O)CC[C@]4(C)C3CC[C@@]21C (some centres not stated)"
  Label: "class 0"
- Compound: "CCN(CC)C(=O)CCn1ccc(=O)[nH]c1=O"
  Label: "class 0"
- Compound: "CN1CCCCC1CCN1c2ccccc2Sc2ccc(S(C)=O)cc21 (configuration not stated)"
  Label: "class 1"
- Compound: "N#Cc1ccsc1Nc1ccccc1[N+](=O)[O-]"
  Label: "class 1"
- Compound: "CCO[C@H]1OC(=O)[C@@H]2C(c3ccc([N+](=O)[O-])cc3)=NO[C@H]12"
  Label: "class 0"
- Compound: "Cc1ccc(S(=O)(=O)N2CCCN(S(=O)(=O)c3ccc(C)cc3)CCN(S(=O)(=O)c3ccc(C)cc3)CCCSCC2)cc1"
  Label: "class 0"

====

# Tested on: CEM cells HIV-1 protection, formazan growth assay
# Assay Notes: NCI AIDS Antiviral Assay
# Condition Context: measured here: growth of uninfected CEM cells
pIC50: −log10 of the molar value.

- Molecule: "CCOc1ccccc1NC(=O)C1=C(C)NC(C)=C(C(=O)Nc2ccccc2OCC)C1c1ccc(NC(C)=O)cc1"
  pIC50: "< 4.90"
- Molecule: "CCc1c(Cc2[nH]c(Cc3[nH]c(C=O)c(C)c3CC)c(CC)c2CC)[nH]c(C=O)c1C"
  pIC50: "< 3.70"
- Molecule: "O=C(NNC1=NCCCN1)c1ccco1"
  pIC50: "< 3.70"
- Molecule: "N#C/C(=C/C=C/c1ccco1)C(N)=O"
  pIC50: "< 3.70"
- Molecule: "Cc1ccc(Nc2nc(=O)[nH]c(=O)[nH]2)cc1N"
  pIC50: "< 3.70"
- Molecule: "N#CC(C(=O)C(N)=O)c1ccccc1Cl (stereo not given)"
  pIC50: "< 3.37"
- Molecule: "Cc1cc(=O)oc2cc(NCS(=O)(=O)O)ccc12"
  pIC50: "< 3.21"
- Molecule: "COc1ccc(/C=C(\\C(C)=O)C(=O)Nc2ccccc2)cc1"
  pIC50: "< 4.75"
- Molecule: "C=C(Br)CN(CC(=C)Br)C(C)=O"
  pIC50: "< 3.70"
- Molecule: "CCOC(=O)CCCSCCCC1(CCCSCCCC(=O)OCC)OCCO1"
  pIC50: "< 4.40"
- Molecule: "CN(C)/C=N\\c1c(C#N)c(CC#N)nn1-c1ccccc1"
  pIC50: "< 3.70"
- Molecule: "C#CCOC(=O)c1ccccc1O"
  pIC50: "< 3.70"
- Molecule: "Cc1ccc([N+](=O)[O-])cc1P(=O)(O)c1cc([N+](=O)[O-])ccc1C"
  pIC50: "< 3.70"
- Molecule: "C=CCNC(=O)N(CCCC(NC(C)=O)C(=O)NCc1ccccc1)Cc1ccccc1 (stereo not given)"
  pIC50: "< 3.24"
- Molecule: "CN(C)CCS(=O)(=O)O"
  pIC50: "< 3.70"
